target under test: CDK4 (Homo sapiens)
Construct: Percentage values are normalized to DMSO-treated MM.1S cells and the respective loading controls; endogenous in cells; host or cells: MM.1S (human multiple myeloma)
Sequence (P11802 whole entry): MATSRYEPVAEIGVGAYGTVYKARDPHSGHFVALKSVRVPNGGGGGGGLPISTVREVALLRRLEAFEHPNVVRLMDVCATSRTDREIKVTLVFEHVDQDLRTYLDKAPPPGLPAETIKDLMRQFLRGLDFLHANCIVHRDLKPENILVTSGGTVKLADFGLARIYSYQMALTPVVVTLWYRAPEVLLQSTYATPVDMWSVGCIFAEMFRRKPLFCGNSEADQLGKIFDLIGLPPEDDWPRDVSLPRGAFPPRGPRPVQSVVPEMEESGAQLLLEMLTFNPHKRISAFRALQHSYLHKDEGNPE
assay summary: CDK4 degradation, western blot of MM.1S cells
Format: cell-based
condition info: MM1.S; 0.1 μM, 16 h, MM.1S cells, normalized to DMSO (100%); read-out: D CDK4: remaining CDK4 levels
quantity measured: remaining activity at 0.1 µM (%)

compound=CC(=O)c1c(C)c2cnc(Nc3ccc(N4CCN(CCOCCOCCOc5cc(-c6scnc6C)ccc5CNC(=O)[C@@H]5C[C@@H](O)CN5C(=O)[C@@H](NC(=O)C5(C#N)CC5)C(C)(C)C)CC4)cn3)nc2n(C2CCCC2)c1=O target_under_test="CDK4 (Homo sapiens)" unit_of_measurement=% censoring_operator== reading=65
compound=CC(=O)c1c(C)c2cnc(Nc3ccc(N4CCN(CCCCCCCCOc5cc(-c6scnc6C)ccc5CNC(=O)[C@@H]5C[C@@H](O)CN5C(=O)[C@H](C(C)C)N5Cc6ccccc6C5=O)CC4)cn3)nc2n(C2CCCC2)c1=O target_under_test="CDK4 (Homo sapiens)" unit_of_measurement=% censoring_operator=> reading=95
compound=CC(=O)c1c(C)c2cnc(Nc3ccc(N4CCN(CCOCCOCCOc5cc(-c6scnc6C)ccc5CNC(=O)[C@@H]5C[C@@H](O)CN5C(=O)[C@@H](NC(=O)C5(F)CC5)C(C)(C)C)CC4)cn3)nc2n(C2CCCC2)c1=O target_under_test="CDK4 (Homo sapiens)" unit_of_measurement=% censoring_operator== reading=44
compound="CC(=O)c1c(C)c2cnc(Nc3ccc(N4CCN(C(=O)CCC(=O)NCCCOCCCCOCCCNc5cccc6c5C(=O)N(C5CCC(=O)NC5=O)C6=O)CC4)cn3)nc2n(C2CCCC2)c1=O (centres unmarked)" target_under_test="CDK4 (Homo sapiens)" unit_of_measurement=% censoring_operator== reading=91
compound="CC(=O)c1c(C)c2cnc(Nc3ccc(N4CCN(C(=O)CCCCCNc5cccc6c5C(=O)N(C5CCC(=O)NC5=O)C6=O)CC4)cn3)nc2n(C2CCCC2)c1=O (centres unmarked)" target_under_test="CDK4 (Homo sapiens)" unit_of_measurement=% censoring_operator== reading=25

====

// values below are reported remaining activity at 0.1 µM
target under test: CDK4 (Homo sapiens)
Construct: Percentage values are normalized to DMSO-treated MM.1S cells and the respective loading controls; endogenous in cells; host or cells: MM.1S (human multiple myeloma)
assay summary: CDK4 degradation, western blot of MM.1S cells
Assay type: cell-based
condition info: MM1.S; 0.1 μM, 16 h, MM.1S cells, normalized to DMSO (100%); read-out: D CDK4: remaining CDK4 levels
quantity measured: remaining activity at 0.1 µM (%)

compound=CC(=O)c1c(C)c2cnc(Nc3ccc(N4CCN(CCOCCOCCOCCOc5cc(-c6scnc6C)ccc5CNC(=O)[C@@H]5C[C@@H](O)CN5C(=O)[C@H](C(C)C)N5Cc6ccccc6C5=O)CC4)cn3)nc2n(C2CCCC2)c1=O target_under_test="CDK4 (Homo sapiens)" censoring_operator== reading=94
compound=CC(=O)c1c(C)c2cnc(Nc3ccc(N4CCN(CCOCCOCCOCC(=O)N[C@H](C(=O)N5C[C@H](O)C[C@H]5C(=O)N[C@@H](C)c5ccc(-c6scnc6C)cc5)C(C)(C)C)CC4)cn3)nc2n(C2CCCC2)c1=O target_under_test="CDK4 (Homo sapiens)" censoring_operator== reading=33
compound="CC(=O)c1c(C)c2cnc(Nc3ccc(N4CCN(C(=O)COCCOCCOCCNc5cccc6c5C(=O)N(C5CCC(=O)NC5=O)C6=O)CC4)cn3)nc2n(C2CCCC2)c1=O (stereo not shown)" target_under_test="CDK4 (Homo sapiens)" censoring_operator== reading=15
compound=CC(=O)c1c(C)c2cnc(Nc3ccc(N4CCN(CCCCCCOCCCCCOCCCCCOc5cc(-c6scnc6C)ccc5CNC(=O)[C@@H]5C[C@@H](O)CN5C(=O)[C@H](C(C)C)N5Cc6ccccc6C5=O)CC4)cn3)nc2n(C2CCCC2)c1=O target_under_test="CDK4 (Homo sapiens)" censoring_operator=> reading=95
compound=CC(=O)c1c(C)c2cnc(Nc3ccc(N4CCN(CCOCCOCCOCC(=O)N[C@H](C(=O)N5C[C@H](O)C[C@H]5C(=O)NCc5ccc(-c6scnc6C)cc5)C(C)(C)C)CC4)cn3)nc2n(C2CCCC2)c1=O target_under_test="CDK4 (Homo sapiens)" censoring_operator== reading=80
compound="CC(=O)c1c(C)c2cnc(Nc3ccc(N4CCN(C(=O)CCCCCOCCOCCOCCOCCOCCOCCCCCCNc5cccc6c5C(=O)N(C5CCC(=O)NC5=O)C6=O)CC4)cn3)nc2n(C2CCCC2)c1=O (stereo not shown)" target_under_test="CDK4 (Homo sapiens)" censoring_operator== reading=86
compound="CC(=O)c1c(C)c2cnc(Nc3ccc(N4CCN(CCOCCOCCOCCNC(=O)COc5cccc6c5C(=O)N(C5CCC(=O)NC5=O)C6=O)CC4)cn3)nc2n(C2CCCC2)c1=O (stereo not shown) [8 (BSJ-03-123), BSJ-03-123, reference compound]" target_under_test="CDK4 (Homo sapiens)" censoring_operator== reading=27

====

assay summary: elog D7.4 by chromatographic (HPLC) method
Type: physicochemical
condition info: Polaris C18-A column, pH 7.4, read-out: elog D7.4 (experimental distribution coefficient at pH 7.4)
quantity measured: chromatographic logD

molecule="CC(=O)c1c(C)c2cnc(Nc3ccc(N4CCN(CCOCCOCCOCCNC(=O)COc5cccc6c5C(=O)N(C5CCC(=O)NC5=O)C6=O)CC4)cn3)nc2n(C2CCCC2)c1=O (stereo not drawn) [8 (BSJ-03-123), BSJ-03-123, reference compound]" reading=2.5
molecule="CC(=O)c1c(C)c2cnc(Nc3ccc(N4CCN(C(=O)CCCCOCCOCCOCCNc5cccc6c5C(=O)N(C5CCC(=O)NC5=O)C6=O)CC4)cn3)nc2n(C2CCCC2)c1=O (stereo not drawn) [compound 14]" reading=3.1
molecule="CC(=O)c1c(C)c2cnc(Nc3ccc(N4CCN(CCOCCOCCOc5cc(-c6scnc6C)ccc5CNC(=O)[C@@H]5C[C@@H](O)CN5C(=O)[C@H](C(C)C)N5Cc6ccccc6C5=O)CC4)cn3)nc2n(C2CCCC2)c1=O [compound 29]" reading=3.2
molecule="CC(=O)c1c(C)c2cnc(Nc3ccc(N4CCN(CCOCCOCCOCCOc5cc(-c6scnc6C)ccc5CNC(=O)[C@@H]5C[C@@H](O)CN5C(=O)[C@H](C(C)C)N5Cc6ccccc6C5=O)CC4)cn3)nc2n(C2CCCC2)c1=O [compound 30]" reading=3.1
molecule="CC(=O)c1c(C)c2cnc(Nc3ccc(N4CCN(CCCCCCCC(=O)N[C@H](C(=O)N5C[C@H](O)C[C@H]5C(=O)NCc5ccc(-c6scnc6C)cc5)C(C)(C)C)CC4)cn3)nc2n(C2CCCC2)c1=O [compound 22]" reading=3.3
molecule="CN[C@@H](C)C(=O)N[C@H](C(=O)N1C[C@@H](Oc2cccc(OCCOCCOCCOCCN3CCN(c4ccc(Nc5ncc6c(C)c(C(C)=O)c(=O)n(C7CCCC7)c6n5)nc4)CC3)c2)C[C@H]1C(=O)N[C@@H]1CCCc2ccccc21)C1CCCCC1 [compound 35]" reading=4.3
molecule="CC(=O)c1c(C)c2cnc(Nc3ccc(N4CCN(C(=O)CCCCCNc5cccc6c5C(=O)N(C5CCC(=O)N(C)C5=O)C6=O)CC4)cn3)nc2n(C2CCCC2)c1=O (stereo not drawn) [compound 21]" reading=3.6
molecule="CC(=O)c1c(C)c2cnc(Nc3ccc(N4CCN(C(=O)CCCCCOCCCCCCOCCCCCCNc5cccc6c5C(=O)N(C5CCC(=O)NC5=O)C6=O)CC4)cn3)nc2n(C2CCCC2)c1=O (stereo not drawn) [compound 17]" reading=5.2
molecule="CC(=O)c1c(C)c2cnc(Nc3ccc(N4CCN(C(=O)CCCCCNc5cccc6c5C(=O)N(C5CCC(=O)NC5=O)C6=O)CC4)cn3)nc2n(C2CCCC2)c1=O (stereo not drawn) [compound 11]" reading=3.4

====

target under test: CDK6 (Homo sapiens, UniProt Q00534)
Construct: Percentage values are normalized to DMSO-treated MM.1S cells and the respective loading controls; endogenous in cells; host or cells: MM.1S (human multiple myeloma)
Sequence (Q00534 whole entry): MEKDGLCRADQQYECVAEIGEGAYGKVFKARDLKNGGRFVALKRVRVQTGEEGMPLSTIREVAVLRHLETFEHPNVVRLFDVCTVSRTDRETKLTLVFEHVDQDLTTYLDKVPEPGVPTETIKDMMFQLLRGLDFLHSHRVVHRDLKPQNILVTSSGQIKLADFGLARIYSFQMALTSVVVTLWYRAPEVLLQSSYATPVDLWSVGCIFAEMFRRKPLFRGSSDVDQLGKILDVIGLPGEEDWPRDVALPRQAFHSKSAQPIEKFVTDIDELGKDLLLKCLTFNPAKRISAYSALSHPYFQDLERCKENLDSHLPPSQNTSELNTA
assay summary: CDK6 degradation, western blot of MM.1S cells
Format: cell-based
condition info: 0.1 μM, 16 h, MM.1S cells
Protocol: We determined the concentration of both kinases and CRBN, the latter in order to control the expression of the corresponding ligase. […] As further characteristics of CDK4/6d, the desired selectivity of CDK6 over CDK4 degradation and the unwanted influence on the IKZF1 concentration were determined. […] Next, we determined the concentration- and time-dependent activity of 11 (Fig. S2, ESI ^†). […]
// values below are reported Selectivity ratio D CDK4/D CDK6 for the degradation of CDK6 over CDK4
quantity measured: Selectivity ratio D CDK4/D CDK6 for the degradation of CDK6 over CDK4

compound=CC(=O)c1c(C)c2cnc(Nc3ccc(N4CCN(CCOCCOCCOCC(=O)N[C@H](C(=O)N5C[C@H](O)C[C@H]5C(=O)N[C@@H](C)c5ccc(-c6scnc6C)cc5)C(C)(C)C)CC4)cn3)nc2n(C2CCCC2)c1=O reading=19
compound="CC(=O)c1c(C)c2cnc(Nc3ccc(N4CCN(C(=O)CCCCCOCCCCOCCCCOCCCCNc5cccc6c5C(=O)N(C5CCC(=O)NC5=O)C6=O)CC4)cn3)nc2n(C2CCCC2)c1=O (stereo not shown)" reading=3.4
compound="CC(=O)c1c(C)c2cnc(Nc3ccc(N4CCN(C(=O)CCCCOCCOCCOCCNc5cccc6c5C(=O)N(C5CCC(=O)NC5=O)C6=O)CC4)cn3)nc2n(C2CCCC2)c1=O (stereo not shown)" reading=3.3
compound="CC(=O)c1c(C)c2cnc(Nc3ccc(N4CCN(C(=O)CCCCCOCCCCCCOCCCCCCNc5cccc6c5C(=O)N(C5CCC(=O)NC5=O)C6=O)CC4)cn3)nc2n(C2CCCC2)c1=O (stereo not shown)" reading=1.7
compound="COc1cc(C(=O)O)ccc1NC(=O)[C@@H]1N[C@@H](CC(C)(C)C)[C@](C#N)(c2ccc(Cl)cc2F)[C@H]1c1cccc(Cl)c1F [6 (Idasanutlin), idasanutlin, reference compound]" reading=0.9
compound="CC(=O)c1c(C)c2cnc(Nc3ccc(N4CCN(C(=O)COCCOCCOCCNc5cccc6c5C(=O)N(C5CCC(=O)NC5=O)C6=O)CC4)cn3)nc2n(C2CCCC2)c1=O (stereo not shown)" reading=1.9
compound="CC(=O)c1c(C)c2cnc(Nc3ccc(N4CCN(C(=O)CCCCCOCCOCCOCCOCCOCCOCCCCCCNc5cccc6c5C(=O)N(C5CCC(=O)NC5=O)C6=O)CC4)cn3)nc2n(C2CCCC2)c1=O (stereo not shown)" reading=5.4
compound="CC(=O)c1c(C)c2cnc(Nc3ccc(N4CCN(C(=O)CCCCOCCCCCOCCCCCCNc5cccc6c5C(=O)N(C5CCC(=O)NC5=O)C6=O)CC4)cn3)nc2n(C2CCCC2)c1=O (stereo not shown)" reading=2.4
compound="CC(=O)c1c(C)c2cnc(Nc3ccc(N4CCN(C(=O)CCC(=O)NCCCOCCCCOCCCNc5cccc6c5C(=O)N(C5CCC(=O)NC5=O)C6=O)CC4)cn3)nc2n(C2CCCC2)c1=O (stereo not shown)" reading=1.4
compound=CC(=O)c1c(C)c2cnc(Nc3ccc(N4CCN(CCOCCOCCOc5cc(-c6scnc6C)ccc5CNC(=O)[C@@H]5C[C@@H](O)CN5C(=O)[C@@H](NC(=O)C5(C#N)CC5)C(C)(C)C)CC4)cn3)nc2n(C2CCCC2)c1=O reading=46

Where these numbers come from: paper PMC7552917
